- targetDesc: ScBbc1
- assayNotes: SPOT peptide array binding signal intensity (averaged, normalized) (arbitrary units (background-subtracted, floor 0; scale differs between SH3 domains)); higher = stronger binding of the SH3 domain to the peptide
Record Condition met whenever SPOT peptide array binding signal intensity is at 5 or higher; record Condition not met when lower.

Example cases with answers are listed next.
[
  {
    "binder": "NFLRLLIGLPSQNEL",
    "class": "Condition not met"
  },
  {
    "binder": "HRRRRVFSIPSLKSI",
    "class": "Condition met"
  },
  {
    "binder": "NMLSRPRLAKLPSIR",
    "class": "Condition not met"
  },
  {
    "binder": "STPQTMRQAPKRPDA",
    "class": "Condition met"
  },
  {
    "binder": "PSPSSSPPPIPKTAN",
    "class": "Condition not met"
  }
]

Q: In plain terms: is recorded SPOT peptide array binding signal intensity at least 5 for `NMLKKKPLKKPLKRF` ?
Result: Condition not met

Q: Given `ILARAILTIPRVLDK` , state whether its SPOT peptide array binding signal intensity is at least 5.
Result: Condition not met

Q: API: above_or_equal(metric=SPOT peptide array binding signal intensity, cutoff=5) for item `NFKRLLPRDPSEKSS`
Result: Condition not met
